# assayed_system: Sodium- and chloride-dependent GABA transporter 3 (Homo sapiens)
# Sequence (P48066 whole entry): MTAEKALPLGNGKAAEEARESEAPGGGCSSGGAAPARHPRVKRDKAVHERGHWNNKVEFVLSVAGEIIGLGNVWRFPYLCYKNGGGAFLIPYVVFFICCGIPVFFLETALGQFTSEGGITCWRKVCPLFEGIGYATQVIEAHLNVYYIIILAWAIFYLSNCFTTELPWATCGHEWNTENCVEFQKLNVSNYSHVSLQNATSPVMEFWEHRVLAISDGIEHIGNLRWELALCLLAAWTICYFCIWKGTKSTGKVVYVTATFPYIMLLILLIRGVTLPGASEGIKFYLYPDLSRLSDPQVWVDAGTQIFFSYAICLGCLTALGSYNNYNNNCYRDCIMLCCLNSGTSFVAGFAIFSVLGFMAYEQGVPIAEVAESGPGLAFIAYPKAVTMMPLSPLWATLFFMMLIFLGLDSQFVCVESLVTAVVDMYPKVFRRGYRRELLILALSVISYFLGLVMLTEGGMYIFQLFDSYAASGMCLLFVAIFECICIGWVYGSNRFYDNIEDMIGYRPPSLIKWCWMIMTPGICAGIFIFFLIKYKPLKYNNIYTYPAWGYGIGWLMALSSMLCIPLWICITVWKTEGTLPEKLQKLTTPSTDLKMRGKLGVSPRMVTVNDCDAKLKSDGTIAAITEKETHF
observation_type: IC50

What IC50 value was documented for this compound, Cc1ccccc1/C(=C\CCN1CCC[C@@H](C(=O)O)C1)c1ccccc1F ?
> 100 µM

----------
Measured Ki values are reported for all entries that follow.
# assayed_system: Sodium- and chloride-dependent GABA transporter 1 (Homo sapiens, UniProt P30531)
# Sequence (P30531 whole entry): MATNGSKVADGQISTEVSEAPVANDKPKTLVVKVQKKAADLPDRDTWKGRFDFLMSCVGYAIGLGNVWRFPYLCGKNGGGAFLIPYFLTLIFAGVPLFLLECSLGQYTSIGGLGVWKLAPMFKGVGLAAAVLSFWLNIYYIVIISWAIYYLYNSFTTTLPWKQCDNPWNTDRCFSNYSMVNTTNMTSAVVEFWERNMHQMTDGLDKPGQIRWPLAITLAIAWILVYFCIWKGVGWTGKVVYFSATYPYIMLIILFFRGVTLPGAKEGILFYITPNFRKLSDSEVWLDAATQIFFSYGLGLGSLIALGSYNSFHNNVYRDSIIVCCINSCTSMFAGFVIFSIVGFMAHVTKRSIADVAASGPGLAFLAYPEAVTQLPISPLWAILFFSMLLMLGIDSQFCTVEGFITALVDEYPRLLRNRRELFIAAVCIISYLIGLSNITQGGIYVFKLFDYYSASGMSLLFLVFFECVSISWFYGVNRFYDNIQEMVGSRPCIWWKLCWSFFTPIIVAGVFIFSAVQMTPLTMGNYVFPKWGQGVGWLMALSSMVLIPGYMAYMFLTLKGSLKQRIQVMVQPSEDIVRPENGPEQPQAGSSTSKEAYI
# procedure_details: Displacement of [3H]Tiagabine from human recombinant GAT1 expressed in HEK293 cells by equilibrium binding assay
Please reply with the bare figure in nM and do not write the unit itself.

sample_smiles: O=C(O)[C@@H]1CCCN(CC/C=C(/c2ccccc2F)c2ccccc2OC(F)(F)F)C1
observation_type: Ki
endpoint_value: 52.5

What Ki value was documented for this compound, Cc1cccc(C)c1/C(=C\CCN1CCC[C@@H](C(=O)O)C1)c1ccccc1 ?
77.6
